Provide the reported Emax of each item.
Tested on: FD (familial dysautomonia) IKBKAP minigene, exon 20 inclusion, in HEK293T cells
Test: Primary splicing assay (FD IKBKAP minigene, Firefly/Renilla luciferase reporter in HEK293T)
Format: cell-based, human
Conditions: Homo sapiens, HEK-293T; max efficacy in Primary Assay; Firefly/Renilla ratio, kinetin and DMSO as positive and negative controls; 24 hours of treatment; read-out: Emax (%)
Answers are plain numbers, in %.

Solved cases (3 shown):
# molecule, output-unit, Emax
rows = [
    ("O=c1[nH]c2c(NCc3nccs3)nc(Cl)nc2n1C1CCCCO1 (centres unmarked) [(344)]", "%", 18.4),
    ("COc1nc(NCc2ccco2)c2nc[nH]c2n1 [(36)]", "%", 18),
    ("Clc1nc(NCc2nccs2)c2nc(OCc3cccnc3)[nH]c2n1 [(506)]", "%", 144),
]

Your task in this section: give Emax for each listed record.
1. FC(F)COc1nc2c(NCc3ccncn3)nc(Cl)nc2[nH]1 [(349)]
2. Clc1nc(NCc2ccco2)c2nc(OCC3CCCC3)[nH]c2n1 [(338)]
3. c1ccc(-c2c[nH]c3ncnc(NCc4ccco4)c23)cc1 [(83)]
4. COc1nc2c(NCc3ccncn3)nc(Cl)nc2n1CCO [(300)]
5. c1c[nH]c(CNc2ncnc3[nH]cnc23)n1 [(6)]
6. Cc1nc2ncnc(NCc3ccco3)c2[nH]1 [(87)]
7. Cc1nc(NCc2ccco2)c2nc[nH]c2n1 [(45)]
8. CCOc1nc2c(NCc3ccncn3)nc(Cl)nc2[nH]1 [(320)]

Ans:
1. 227
2. 222
3. 4
4. 84
5. 21
6. 46
7. 56
8. 208

----------
Tested on: FD (familial dysautomonia) IKBKAP minigene, exon 20 inclusion, in HEK293T cells
Assay: Primary splicing assay (FD IKBKAP minigene, Firefly/Renilla luciferase reporter in HEK293T)
Type: cell-based, human
Conditions: Homo sapiens, HEK-293T; max efficacy in Primary Assay; Firefly/Renilla ratio, kinetin and DMSO as positive and negative controls; 24 hours of treatment; read-out: Emax (%)
Binning rule for recorded Emax: lower (below 40%), middle (40% to below 80%), upper (80% or more)

Consider the worked cases shown below.
# substance-smiles, group-label
records = [
    ("CNC(=O)c1cc2c(NCc3ccco3)nc(Cl)nc2[nH]1", "upper"),
    ("Clc1nc(NCc2nccs2)c2nc(OCCOc3ccccc3)[nH]c2n1", "middle"),
    ("Clc1nc(NCc2nccs2)c2nc(OCc3cscn3)[nH]c2n1", "upper"),
    ("Clc1nc(NCc2ccco2)c2ncn(Cc3ccccn3)c2n1", "middle"),
    ("OCCCNc1nc2c(NCc3ccco3)nc(Cl)nc2[nH]1", "upper"),
]

Q: Kindly identify the class of "Cc1cc(CNc2nc(Cl)nc3[nH]cnc23)ccn1" .
Ans: lower

Q: Kindly identify the class of "CNC(=O)c1nc2c(NCc3ccco3)nc(Cl)nc2[nH]1" .
Ans: middle

Q: Kindly identify the class of "Clc1nc(NCc2nccs2)c2nc(C3CCC3)[nH]c2n1" .
Ans: upper

Q: Kindly identify the class of "c1ccc(-c2nc(NCc3ccco3)c3nc[nH]c3n2)cc1" .
Ans: lower

----------
Tested on: IKBKAP splicing (exon 20 inclusion) in FD fibroblasts GM04663
Experiment: Secondary assay: IKBKAP splicing analysis by RT-PCR in FD fibroblasts GM04663
Type: cell-based
Conditions: Homo sapiens; 0.08 μM; FD fibroblasts GM04663, 24 hours of treatment; read-out: % exon Inclusion Normalized
Note to self: values exactly at 30% are condition met. So activation at 0.08 µM at or above 30% is condition met, below is condition not met.

Consider the worked cases shown below.
# compound, group-label
measured = [
    ("COc1nc2c(NCc3nccs3)nc(Cl)nc2[nH]1", "condition not met"),
    ("Clc1nc(NCc2nccs2)c2cc[nH]c2n1", "condition not met"),
    ("Clc1nc(NCc2nccs2)c2nc(OCc3cscn3)[nH]c2n1", "condition met"),
    ("CCCOc1nc2c(NCc3nccs3)nc(Cl)nc2[nH]1", "condition met"),
    ("CCOc1nc2c(NCc3ccncn3)nc(Cl)nc2[nH]1", "condition met"),
]

Q: Would you say "FC(F)(F)COc1nc2c(NCc3ccco3)nc(Cl)nc2[nH]1" shows activation at 0.08 µM at minimum 30%?
Ans: condition not met

Q: Would you say "COCCOc1nc2c(NCc3ccncn3)nc(Cl)nc2[nH]1" shows activation at 0.08 µM at minimum 30%?
Ans: condition not met

Q: Would you say "FC(F)COc1nc2c(NCc3ccncn3)nc(Cl)nc2[nH]1" shows activation at 0.08 µM at minimum 30%?
Ans: condition not met

Q: Would you say "Clc1nc(NCc2cscn2)c2cc[nH]c2n1" shows activation at 0.08 µM at minimum 30%?
Ans: condition not met

Q: Would you say Clc1nc(NCc2nccs2)c2nc(OCC3CCO3)[nH]c2n1 (centres unmarked) shows activation at 0.08 µM at minimum 30%?
Ans: condition not met

Q: Would you say "OCCOc1nc2c(NCc3ccco3)nc(Cl)nc2[nH]1" shows activation at 0.08 µM at minimum 30%?
Ans: condition met

Q: Would you say "Clc1nc(NCc2ccco2)c2nc(OC3COC3)[nH]c2n1" shows activation at 0.08 µM at minimum 30%?
Ans: condition met

Q: Would you say "FC1(F)CC(COc2nc3c(NCc4nccs4)nc(Cl)nc3[nH]2)C1" shows activation at 0.08 µM at minimum 30%?
Ans: condition met
